- Test target: T1, Biotinylated murine VEGF-164 (Acro Biosystem) (mouse, UniProt Q00731-2 27-190, biotinylated (site not stated))
- T1 construct: Bought protein; also called Mouse VEGF164; mouse VEGFA
- T1 sequence (looked up): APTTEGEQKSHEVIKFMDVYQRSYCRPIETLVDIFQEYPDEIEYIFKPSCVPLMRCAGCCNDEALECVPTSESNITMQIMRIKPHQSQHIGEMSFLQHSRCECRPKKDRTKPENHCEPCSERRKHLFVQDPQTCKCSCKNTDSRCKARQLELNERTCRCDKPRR
- Experimental protocol: BLI, biotinylated antigen on streptavidin tips, 1:1 global fit
Reported Kd values follow for various binders
State the answer as a number, implicitly in nM.

Some binders with recorded Kd:
Binder	Experimental readout	Obs value
23D5.1 (VHH, Autonomous humanised VH domain (DotBody), from the 16C2.1-based library without heat challenge; E. coli, ATG codon 5' (possible initiator Met), 3' hexahistidine tag; also called DotBody 23D5.1) VHH: EVQLVESGGGLVQPGGSLRLSCAISGFDLATTDIDWVRQAPGKGLEWVARIFRPSDFTDYADSVKGRFTISADTSKNTVYLQMNSLRAEDTAVYYCVRPDSYAYNILFVTRTFNALHYRGQGTLVTVSS	Kd	8.34
21A8.1 (VHH, Autonomous humanised VH domain (DotBody), from the 16C2.1-based library with heat challenge; E. coli, ATG codon 5' (possible initiator Met), 3' hexahistidine tag; also called DotBody 21A8.1) VHH: EVQLVESGGGLVQPGGSLRLSCAISGFSVDATDIDWVRQAPGKGLEWVARIFSPSGFTDYADSVKGRFTISADTSKNTVYLQMNSLRAEDTAVYYCDRPEFYAYNIFHDPRTVPAGNYRGQGTLVTVSS	Kd	46.1
16A6.1 (VHH, E. coli, ATG codon 5' (possible initiator Met), 3' hexahistidine tag; also called clone 16A6.1) VHH: EVQLVESGGGLVQPGGSLRLSCAISGFSLAATDIDWVRQAPGKGLEWVARIFPFSGSTDYTDSVKGRFTISADTSKNTVYLQMNSLRAEDTAVYYCGRSDSYSYNVFLHDPAYTALDYRGQGTLVTVSS	Kd	18.4
20A2.1 (VHH, Autonomous humanised VH domain (DotBody), from the 16A2.1-based library with heat challenge; E. coli, ATG codon 5' (possible initiator Met), 3' hexahistidine tag; also called DotBody 20A2.1) VHH: EVQLVESGGGLVQPGGSLRLSCAISGFPLADTDIDWVRQAPGKGLEWVARIFSSYGSTDYADSVKGRFTISADTSKNTVYLQMNSLRAEDTAVYYCGRSDSIAYNIILPASTYSSRDYRGQGTLVTVSS	Kd	10.2
16A2.1 (VHH, E. coli, ATG codon 5' (possible initiator Met), 3' hexahistidine tag; also called anti-VEGF DotBody 16A2.1; clone 16A2.1) VHH: EVQLVESGGGLVQPGGSLRLSCAISGFALAETDIDWVRQAPGKGLEWVARIFSSGGNTDYADSVKGRFTISADTSKNTVYLQMNSLRAEDTAVYYCGRSDSIAYNVILPNSTYTARDYRGQGTLVTVSS	Kd	16.6

Using the record for 20A3.1 (VHH, Autonomous humanised VH domain (DotBody), from the 16A2.1-based library with heat challenge; E. coli, ATG codon 5' (possible initiator Met), 3' hexahistidine tag; also called DotBody 20A3.1) VHH: EVQLVESGGGLVQPGGSLRLSCAISGFSLADTDIDWVRQAPGKGLEWVARIFSSSGSTYYADSVKGRFTISADTSKNTVYLQMNSLRAEDTAVYYCDRADSVGYNVIFPGSTYSRSGYRGQGTLVTVSS , state its measured Kd.
8.7

Using the record for 21D9.1 (VHH, Autonomous humanised VH domain (DotBody), from the 16C2.1-based library with heat challenge; E. coli, ATG codon 5' (possible initiator Met), 3' hexahistidine tag; also called DotBody 21D9.1) VHH: EVQLVESGGGLVQPGGSLRLSCAISGFSLGATDIDWVRQAPGKGLEWVARIFSPSDFTDYADSVKGRFTISADTSKNTVYLQMNSLRAEDTAVYYCSRPDTYAYNIFPHTASHGAFNYRGQGTLVTVSS , state its measured Kd.
41.7

Using the record for 13A6 (VHH, Autonomous humanised VH domain (DotBody); also called anti-VEGF DotBody 13A6; clone 13A6) VHH: EVQLVESGGGLVQPGGSLRLSCAISGFSLAATDIDWVRQAPGKGLEWVARIFPSAGSTDYADSVKGRFTISADTSKNTVYLQMNSLRAEDTAVYYCGRSDSYSYNVFLHNPTYTALDYRGQGTLVTVSS , state its measured Kd.
248

Using the record for 21A1.1 (VHH, Autonomous humanised VH domain (DotBody), from the 16C2.1-based library with heat challenge; E. coli, ATG codon 5' (possible initiator Met), 3' hexahistidine tag; also called DotBody 21A1.1) VHH: EVQLVESGGGLVQPGGSLRLSCAISGFALATTDIDWVRQAPGKGLEWVARIFNPSDFTDYADSVKGRFTISADTSKNTVYLQMNSLRAEDTAVYYCGRPAVYGYNIFLDSPTYDASQYRGQGTLVTVSS , state its measured Kd.
13.8

Using the record for 21E6.1 (VHH, Autonomous humanised VH domain (DotBody), from the 16C2.1-based library with heat challenge; E. coli, ATG codon 5' (possible initiator Met), 3' hexahistidine tag; also called DotBody 21E6.1) VHH: EVQLVESGGGLVQPGGSLRLSCAISGFTLAATDIDWVRQAPGKGLEWVARIFTPTGFSDYADSVKGRFTISADTSKNTVYLQMNSLRAEDTAVYYCGIPELYAYNIFMDIPAYNDVYYRGQGTLVTVSS , state its measured Kd.
14.2
